assay: melting temperature; fluorescence melt of hairpins on a sequencing array, two-state fit, raised by 9.35 °C to match UV melts; conditions: sodium 0.088 M
For each entry below, report its Tm value.
One number for each entry, in °C.

Below, 2 sequences whose answers are already recorded.
> print(dat)
                          sequence.chain  recorded.metric  result.number
1      GATTATGAAAATAATC ((((((....))))))               Tm           40.1
2  GGATGGGGAAACCTGTCC (((..((....))..)))               Tm             41

// next item, Tm requested
Form field Tm, entry GTTTCGGGAAACTGGAAC (((.(.(....).).))) : 39.8
